Recorded interaction score by entry
Target: T1, O6-bA
T1 chain: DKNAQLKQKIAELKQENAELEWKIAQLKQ
Test: two-hybrid library CCNG1;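 also: natural log of median RNA to DNA barcode read ratio; higher means stronger binding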
result_type: interaction score

1. DEIAQLEQKIAELKQENAELEWENAQLEQ [O3-bA]: -0.618
2. DKIAQLKQEIAELEQENAELEWENAQLEQ [O11-bA]: -0.9
3. DKIAQLKQEIAELEQKNAELKWKNAQLKQ [O4-bA]: 1.17
4. DKNAQLKQENAELEQKIAELKWKIAQLKQ [O10-bA]: 0.6
5. DENAQLEQEIAELEQENAELEWKIAQLKQ [O14-bA]: 2.5
6. DEIAQLEQKIAELKQKNAELKWKNAQLKQ [O12-bA]: 0.643
7. DKIAQLKQKNAELKQEIAELEWKNAQLKQ [O16-bA]: 1.4
